// data source = PubChem BioAssay (NCI)

System: MOLT-4 leukemia
protocol summary: NCI tumour cell line growth inhibition, 48 h; in the data active = GI50 below about 0.43 µM; inactive = the rest
Possible outcomes: class 1 for active, class 0 for inactive

compound="N#CC1=C(N)OC2=C(COc3ccc(F)cc32)C1c1ccc(Cl)cc1 (stereo not drawn)" assigned_label="class 0"
compound=CCCCCNC(=O)[C@@H]1CCCN2C(=O)CC[C@H](NC(=O)[C@H](Cc3ccc(OP(=O)(O)O)cc3)NC(C)=O)C(=O)N12 assigned_label="class 0"
compound=O=[N+]([O-])c1ccc(-c2nc(N(CCO)CCO)c3ccccc3n2)o1 assigned_label="class 0"
compound="CC(=O)OCC1OC(OC2CC3C(C)(C)C(OC(C)=O)CC[C@]3(C)C3CCC45CC4(CC[C@H]5C(C)CC(O)[C@@H](O)C(C)(C)O)[C@]23C)C(O)C(O)C1O (stereo partly drawn)" assigned_label="class 1"
compound=c1ccc2[nH]c(SSc3nc4ncncc4[nH]3)nc2c1 assigned_label="class 0"
compound=C[C@@H]1O[C@@H](O[C@@H]2[C@@H](O)[C@H](OCCc3ccc(O)c(O)c3)O[C@H](COC(=O)/C=C/c3ccc(O)c(O)c3)[C@H]2O)[C@H](O)[C@H](O)[C@H]1O assigned_label="class 0"
compound=COc1cc(Cl)cc(-c2nn(C(=O)NCCN3CCN(C)CC3)cc2-c2ccncc2)c1 assigned_label="class 0"
compound=COc1cc(C(=O)O[C@H](C(=O)NCCNC(=O)[C@@H](OC(=O)c2cc(OC)cc3c(C)cccc23)[C@]2(C)CO2)[C@]2(C)CO2)c2cccc(C)c2c1 assigned_label="class 1"
compound=COc1ccc2c(c1)nc(N)c1c3cc(OC)c(OC)cc3cn21 assigned_label="class 1"
compound=O=C(NC1CC1)c1ccc(-c2nc3ccc4[nH]ncc4c3c3c2CCCC3)cc1 assigned_label="class 0"
compound=O=C1/C(=C/c2ccc(O)c([N+](=O)[O-])c2)CCC/C1=C\c1ccc(O)c([N+](=O)[O-])c1 assigned_label="class 0"
compound=C=C1CC[C@@]2(C#N)[C@H]3[C@H](CC[C@@H]2C)[C@@H](C)C[C@@H](CC(C)(C)C#N)[C@H]13 assigned_label="class 0"
compound="O=C(c1cc(F)c(Cl)cc1Cl)N1N=C(c2ccccc2)CC1(O)c1ccccc1 (stereo not drawn)" assigned_label="class 0"

---

Test system: OVCAR-4 ovarian
protocol summary: NCI tumour cell line growth inhibition, 48 h
Below is a list of entries, each paired with its recorded TGI value.
measured property: TGI

molecule=CN(C)c1ccc(/C=N/n2c(-c3ccccc3)nc3ccccc3c2=O)cc1 tgt="OVCAR-4 ovarian" measured_property=TGI result="> 100 µM"
molecule="CC(=O)C1CC2(c3ccc(C)cc3)C(c3ccc(C)cc3)=C(c3ccc(C)cc3)C1(c1ccc(C)cc1)S2=O (stereo not given)" tgt="OVCAR-4 ovarian" measured_property=TGI result="> 100 µM"
molecule="Fc1ccc(C2NC(=S)NC3=C2CCOc2c3ccc3ccccc23)cc1 (stereo not given)" tgt="OVCAR-4 ovarian" measured_property=TGI result="> 100 µM"
molecule=Fc1ccc(Oc2nccc(-c3c(-c4ccc(F)cc4)ncn3C3CCNCC3)n2)cc1 tgt="OVCAR-4 ovarian" measured_property=TGI result="> 25 µM"
molecule=CCOC(=O)Cc1csc(/N=C2\NC(=O)/C(=C3\C(=O)N(C)c4ccccc43)S2)n1 tgt="OVCAR-4 ovarian" measured_property=TGI result="> 100 µM"
molecule=CC(=O)NC1=C(Nc2ccc(C)cc2)C(=O)c2ccccc2C1=O tgt="OVCAR-4 ovarian" measured_property=TGI result="46.8 µM"
molecule=Cc1cc(C)c(O)c(CNCCCCCCNCc2cc(C)cc(C)c2O)c1 tgt="OVCAR-4 ovarian" measured_property=TGI result="3.75 µM"
molecule=Cc1nc2c(=O)[nH]c(=O)n(C)c2[nH]c1=O tgt="OVCAR-4 ovarian" measured_property=TGI result="> 100 µM"
molecule=NNC(=Nc1ccccc1)SCc1ccccc1 tgt="OVCAR-4 ovarian" measured_property=TGI result="> 100 µM"
molecule="N#CCc1ccc(C(C#N)/C(CCCC(=O)Nc2cccc([N+](=O)[O-])c2)=N\\NC(=O)NN)cc1 (stereo not given)" tgt="OVCAR-4 ovarian" measured_property=TGI result="> 100 µM"
molecule=Cc1ncc([N+](=O)[O-])n1CCNS(=O)(=O)CCCn1ccnc1[N+](=O)[O-] tgt="OVCAR-4 ovarian" measured_property=TGI result="> 100 µM"
molecule="N#CC1=C(N)OC2=C(COc3ccc(F)cc32)C1c1ccc(Cl)cc1 (stereo not given)" tgt="OVCAR-4 ovarian" measured_property=TGI result="> 100 µM"
molecule="C[C@]12CC[C@H](O)CC1=CC[C@@H]1C2CC[C@]2(C)c3nn(-c4ccc(F)cc4)nc3CC12 (stereo not given in full)" tgt="OVCAR-4 ovarian" measured_property=TGI result="> 100 µM"
molecule=O=S(=O)(O)c1ccc2c(N=Nc3ccccc3)c(O)c(S(=O)(=O)O)cc2c1 tgt="OVCAR-4 ovarian" measured_property=TGI result="> 100 µM"
molecule="CC(=O)OC(CC(C)C)P1(=O)N(CC(C)(C)C)[C@@H]2CCCC[C@H]2N1CC(C)(C)C (stereo not given in full)" tgt="OVCAR-4 ovarian" measured_property=TGI result="23.6 µM"
molecule=C=C1C[C@@H]2C/C=C/C(=O)C/C(C)=C\C=C\C(=O)O[C@H](C=O)C/C(C)=C/[C@H](C1)O2 tgt="OVCAR-4 ovarian" measured_property=TGI result="70 µM"
molecule=CC(=O)N1CC(C)(C)c2c1cc(C)c(O)c2C tgt="OVCAR-4 ovarian" measured_property=TGI result="> 100 µM"
molecule=C[C@@H]1O[C@@H](O[C@@H]2[C@@H](O)[C@H](OCCc3ccc(O)c(O)c3)O[C@H](COC(=O)/C=C/c3ccc(O)c(O)c3)[C@H]2O)[C@H](O)[C@H](O)[C@H]1O tgt="OVCAR-4 ovarian" measured_property=TGI result="> 100 µM"
molecule=O=C(Nc1ccc(-n2cc(-c3ccncc3)c(-c3ccc(O)c(Cl)c3)n2)cc1)c1cc(Cl)cc(Cl)c1 tgt="OVCAR-4 ovarian" measured_property=TGI result="> 32.5 µM"
molecule=CCCCCCCCCNCCCCCCCCC tgt="OVCAR-4 ovarian" measured_property=TGI result="3.78 µM"
